pIC50: −log10 of the molar value.
Compiled notes: published pIC50 values involving Tyrosine-protein kinase JAK2 (Homo sapiens).

Enquiry: Entry N#Cc1cc(-c2ncnc(Nc3ccc(N4CCN(C5COC5)CC4)cc3)n2)ccc1O[C@H]1CCN(C(=O)[C@H]2CCCO2)C[C@H]1F , system Tyrosine-protein kinase JAK2 (Homo sapiens): what pIC50 was measured?
Return: 6.27

Enquiry: # query: pIC50 | item CCS(=O)(=O)N1CC(CC#N)(n2cc(-c3nc(Nc4cnn(CCCC(=O)N(C)C)c4)nc4ccsc34)cn2)C1 | system: Tyrosine-protein kinase JAK2 (Homo sapiens)
Return: > 7.30

Enquiry: Checklist item: pIC50 tested on Tyrosine-protein kinase JAK2 (Homo sapiens), entry N#Cc1cc(-c2ncnc(Nc3ccc(N4CCN(C5COC5)CC4)cc3)n2)ccc1O[C@H]1CCN(C(=O)[C@H](O)CO)C[C@H]1F , value?
Return: 6.53

Enquiry: API: value(readout=pIC50, system=Tyrosine-protein kinase JAK2 (Homo sapiens)) for record CC(C)NC(=O)N[C@H]1CC[C@H](N(C)c2ncnc3[nH]ccc23)CC1
Return: 6.87

Enquiry: Test system Tyrosine-protein kinase JAK2 (Homo sapiens); read-out pIC50; what value for CCS(=O)(=O)N1CC(CC#N)(n2cc(-c3ccnc(Nc4ccc(C(=O)N5CCC(C#N)CC5)cc4)n3)cn2)C1 (racemic) ?
Return: > 7.00

Enquiry: Notebook: pull reported pIC50 for Tyrosine-protein kinase JAK2 (Homo sapiens), entry Cc1cnc(Nc2ccc(NC(=O)CN3CCCC3)cc2)nc1-c1cnn(C(CC#N)C2CCCC2)c1 (racemic)
Return: > 7.00

---

Across several publications, the following IC50 results were reported for Tyrosine-protein kinase JAK2 (Homo sapiens, UniProt O60674).

{"molecular.string": "CCS(=O)(=O)N1CC(CC#N)(n2cc(-c3ccnc(Nc4ccc(C(=O)N5CC[C@@H](O)C5)cc4)n3)cn2)C1", "IC50": "< 100 nM"}
{"molecular.string": "CCS(=O)(=O)N1CC(CC#N)(n2cc(-c3ccnc(Nc4ccc(C(=O)N5CCC(O)CC5)cc4)n3)cn2)C1", "IC50": "< 100 nM"}
{"molecular.string": "CCN1CCN(Cc2cc(Nc3nc4cc(Oc5ccnc(NC(C)=O)c5)ccc4n3C)cc(C(F)(F)F)c2)CC1", "IC50": "2140 nM"}

We now examine a further compound.
Enquiry: Return IC50 measured with Tyrosine-protein kinase JAK2 (Homo sapiens, UniProt O60674) given this compound: CCS(=O)(=O)N1CC(CC#N)(n2cc(-c3nc(Nc4ccc(-n5cccn5)cc4)nc4ccsc34)cn2)C1
Return: < 50 nM

---

Collected set of IC50 measured with Tyrosine-protein kinase JAK2 (Homo sapiens) across studies.

Here are 3 compounds together with their reported answers.
{"compound": "Cc1ccc(NC(=O)c2cccc(C(F)(F)F)c2)cc1N1CCc2nc(Nc3ccc(C(N)=O)nc3)ncc2C1", "IC50": "8 nM"}
{"compound": "CN1CCC(c2ccc(Nc3ncnc(-c4ccc(OC5CCOCC5)c(C#N)c4)n3)cc2)CC1", "IC50": "575 nM"}
{"compound": "CCC(=O)c1cnc(Nc2ccc(C(C)N(C)C)nn2)cc1Nc1cccc(-c2ncn(C)n2)c1OC (stereo not shown)", "IC50": "≥ 500 nM"}

Enquiry: So what IC50 did C[C@@H](Oc1ccc(-c2ncnc(Nc3ccc(N4CCN(C5COC5)CC4)cc3)n2)cc1C#N)C1CCOCC1 get with Tyrosine-protein kinase JAK2 (Homo sapiens)?
Return: 450 nM

Enquiry: Lab note: need IC50 with Tyrosine-protein kinase JAK2 (Homo sapiens) for entry Cn1cc(-c2cc3ncc(F)n3c(-c3cnn(C(CC#N)C4CC4)c3)n2)cn1 (stereo not shown) , please look it up.
Return: 10 to 100 nM

Enquiry: What is its IC50 for Tyrosine-protein kinase JAK2 (Homo sapiens)? Entry: N#Cc1ccccc1S(=O)(=O)n1ncc2cnc(Nc3ccc4c(c3)CCC(=O)N4)nc21
Return: < 20 nM

Enquiry: Lab note: need IC50 for CNC(=O)c1cc(-c2ccc(OC)cc2)nc2c1[nH]c1cc(OC)ccc12 on Tyrosine-protein kinase JAK2 (Homo sapiens), anyone have it?
Return: 1230 nM

---

pIC50: −log10 of the molar value.
Compiled literature pIC50, tested on Tyrosine-protein kinase JAK2 (Homo sapiens, UniProt O60674).

Worked cases, pIC50 given:
{"compound": "Cc1ccc(NC(=O)Nc2cccc(C(F)(F)F)c2)cc1-c1ccc2c(c1)[nH]c1ncncc12", "tested.system": "Tyrosine-protein kinase JAK2 (Homo sapiens, UniProt O60674)", "pIC50": "6.00 to 6.30"}
{"compound": "N#CCC1(n2cc(-c3ncnc4[nH]ccc34)cn2)CN(C2CCN(C(=O)Nc3nc4ccccc4s3)CC2)C1", "tested.system": "Tyrosine-protein kinase JAK2 (Homo sapiens, UniProt O60674)", "pIC50": "≥ 8.00"}
{"compound": "CS(=O)(=O)N1CCC(CNC(=O)c2noc3c2CN(c2ncnc4[nH]ccc24)CC3)C1 (stereo not drawn)", "tested.system": "Tyrosine-protein kinase JAK2 (Homo sapiens, UniProt O60674)", "pIC50": "5.70 to 6.30"}
{"compound": "Cn1cc(-c2cc3nccn3c(-c3cnn(C(CC#N)C4CCCC4)c3)n2)cn1 (stereo not drawn)", "tested.system": "Tyrosine-protein kinase JAK2 (Homo sapiens, UniProt O60674)", "pIC50": "7.00 to 8.00"}
{"compound": "CCNC(=O)c1nc(Nc2nc3c(cc(C(=O)N(C4CC4)C4CC4)n3CC)c3c2ncn3C)sc1C", "tested.system": "Tyrosine-protein kinase JAK2 (Homo sapiens, UniProt O60674)", "pIC50": 7.30}

Enquiry: # value lookup — system Tyrosine-protein kinase JAK2 (Homo sapiens, UniProt O60674), readout pIC50, item N#CCC1(n2cc(-c3ncnc4[nH]ccc34)cn2)CN(C2CCN(Cc3cccc(C(F)(F)F)c3F)CC2)C1
Return: 7.00 to 7.30

Enquiry: Which measured pIC50 belongs to COc1cnc(Nc2cccc(C(=O)N3CC[C@H](OC)C3)c2)nc1-c1cnn(C(CC#N)C2CC2)c1 (mixture of isomers) , tested on Tyrosine-protein kinase JAK2 (Homo sapiens, UniProt O60674)?
Return: > 7.00

Enquiry: What measured pIC50 is associated with Cn1cc(-c2cc3nccn3c(-c3cnn([C@@H](CCF)C4CCC4)c3)n2)cn1 on Tyrosine-protein kinase JAK2 (Homo sapiens, UniProt O60674)?
Return: 6.00 to 7.00

Enquiry: Look up pIC50 with Tyrosine-protein kinase JAK2 (Homo sapiens, UniProt O60674) for this compound: Cn1cc(-c2cc3nccn3c(-c3cnn(C4(CC#N)CN(CC(F)F)C4)c3)n2)cn1
Return: 7.00 to 8.00

Enquiry: API: value(readout= pIC50, system= Tyrosine-protein kinase JAK2 (Homo sapiens, UniProt O60674), query= CC(C)OC(=O)Cn1cc(Nc2ncc3ccn(C[C@@H](CCF)C(C)C)c3n2)cn1 )
Return: > 7.00

Enquiry: For Tyrosine-protein kinase JAK2 (Homo sapiens, UniProt O60674), provide pIC50 of N#CCC(C1CC1)n1cc(-c2ccnc(Nc3ccc(N4CCOCC4)cc3)n2)cn1 (racemic) please.
Return: > 7.00

Enquiry: What reported pIC50 corresponds to N#CCC1(n2cc(-c3ncnc4[nH]ccc34)cn2)CN(C2CCN(C(=O)c3cc(F)cc(Cl)c3)CC2)C1 on Tyrosine-protein kinase JAK2 (Homo sapiens, UniProt O60674)?
Return: ≥ 8.00

Enquiry: Hello, I am looking for reported pIC50 with Tyrosine-protein kinase JAK2 (Homo sapiens, UniProt O60674) for [2H]C1([2H])C([2H])([2H])C2(COc3cccc(-c4cn([C@H]5C[C@](O)(CO)C5)c5ncnc(N)c45)c3F)OC1([2H])C([2H])([2H])C2([2H])[2H] . Could you help?
Return: < 5.00

---

// cross-source set; read-out = pIC50; system = Tyrosine-protein kinase JAK2 (Homo sapiens)
pIC50: −log10 of the molar value.

Consider the reported pIC50 for these compounds:
{"compound": "CCOC(=O)Cn1cc(Nc2ncc3ccn(CC4CCCC(F)(F)C4)c3n2)cn1 (stereo not drawn)", "pIC50": "> 7.00"}
{"compound": "N#Cc1cccc(S(=O)(=O)N[C@H]2C[C@@H](Nc3c(-c4nncs4)cnc4[nH]ccc34)C2)c1", "pIC50": "≥ 8.00"}
{"compound": "C=CCn1nc(C(=O)NCCC(F)(F)F)c2c1CCN(c1ncnc3[nH]ccc13)C2", "pIC50": "6.30 to 7.00"}
{"compound": "CCS(=O)(=O)N1CC(CC#N)(n2cc(-c3nc(Nc4cnn(CC(=O)O)c4)nc4ccsc34)cn2)C1", "pIC50": "> 7.30"}
{"compound": "Nc1cc2ccc1-c1ccnc(n1)Nc1ccc(OCc3ccccc3F)c(c1)COCCCCNC2=O", "pIC50": "6.00 to 7.00"}

Enquiry: Field request: pIC50 | item: Cc1cc(-n2cnc3ccc(N[C@@H](C)c4ccc(F)cn4)nc32)n[nH]1
Return: 8.52

Enquiry: Item under review: CCC(CC)n1cc(-c2nc(-c3cnn(C[C@@H](CO)N(C)C)c3)cn3nccc23)cn1 . Reported pIC50?
Return: 7.00 to 8.00

Enquiry: Need pIC50 of Cc1cc(C(=O)N2CC3(CC(N(C)c4ncnc5[nH]ccc45)C3)C2)ccc1C#N , thanks.
Return: 5.00 to 6.00

Enquiry: So what does the record say about pIC50 for Cc1ccc(NC(=O)c2cc(N3CCNCC3)cc(C(F)(F)F)c2)cc1-c1ccc2c(c1)[nH]c1ncncc12 ?
Return: ≥ 6.30

Enquiry: For the compound shown here, Cc1ccc(OC[C@H](O)CNc2cc[nH]c(=O)c2-c2nc3cc4c(cc3[nH]2)C(=O)N(C2CCN(C)CC2)C4=O)cc1Cl , give the reported pIC50.
Return: 5.30 to 6.30

Enquiry: Field request: pIC50 | item: Cc1cc(Nc2ncnc(-c3ccc(N4C[C@H](O)C[C@@H]4C)c(C#N)c3)n2)ccc1N1CCN(C2COC2)CC1
Return: 7.49
